Origin of values: ChEMBL document CHEMBL1137421

Endpoint: EC50. System: Bcr/Abl fusion protein (Homo sapiens, UniProt P00519). Items follow.
Sequence (P00519 whole entry, the tested form may be a part): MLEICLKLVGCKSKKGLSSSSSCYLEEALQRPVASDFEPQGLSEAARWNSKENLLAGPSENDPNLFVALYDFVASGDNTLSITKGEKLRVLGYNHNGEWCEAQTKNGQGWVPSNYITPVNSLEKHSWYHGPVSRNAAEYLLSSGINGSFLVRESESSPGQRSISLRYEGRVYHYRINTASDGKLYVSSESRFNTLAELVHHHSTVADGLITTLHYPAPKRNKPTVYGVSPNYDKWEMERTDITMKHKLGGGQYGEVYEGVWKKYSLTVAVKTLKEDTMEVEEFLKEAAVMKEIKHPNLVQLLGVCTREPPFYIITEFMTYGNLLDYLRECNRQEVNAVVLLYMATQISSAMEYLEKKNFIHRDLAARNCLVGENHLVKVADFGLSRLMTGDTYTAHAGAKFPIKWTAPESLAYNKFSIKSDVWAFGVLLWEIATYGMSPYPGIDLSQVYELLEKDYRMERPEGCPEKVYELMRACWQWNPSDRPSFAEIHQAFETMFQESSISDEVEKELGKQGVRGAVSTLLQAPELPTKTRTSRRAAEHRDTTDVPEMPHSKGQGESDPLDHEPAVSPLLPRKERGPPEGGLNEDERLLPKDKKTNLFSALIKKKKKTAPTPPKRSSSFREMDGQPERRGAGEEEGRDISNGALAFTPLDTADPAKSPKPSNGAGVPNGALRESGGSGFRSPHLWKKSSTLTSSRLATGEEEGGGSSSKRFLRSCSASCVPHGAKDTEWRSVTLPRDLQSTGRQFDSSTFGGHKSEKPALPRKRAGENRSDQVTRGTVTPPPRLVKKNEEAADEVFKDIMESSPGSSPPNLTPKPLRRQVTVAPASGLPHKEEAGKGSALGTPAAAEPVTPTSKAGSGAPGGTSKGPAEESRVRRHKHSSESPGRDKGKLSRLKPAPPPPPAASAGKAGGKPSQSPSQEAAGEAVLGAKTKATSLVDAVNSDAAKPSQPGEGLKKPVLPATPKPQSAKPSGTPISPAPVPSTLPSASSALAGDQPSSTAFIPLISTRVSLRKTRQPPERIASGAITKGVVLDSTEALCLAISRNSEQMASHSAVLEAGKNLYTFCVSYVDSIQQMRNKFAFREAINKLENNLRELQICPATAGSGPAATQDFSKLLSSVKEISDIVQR
Sequence (P11274 whole entry, further chain, the tested form may be a part): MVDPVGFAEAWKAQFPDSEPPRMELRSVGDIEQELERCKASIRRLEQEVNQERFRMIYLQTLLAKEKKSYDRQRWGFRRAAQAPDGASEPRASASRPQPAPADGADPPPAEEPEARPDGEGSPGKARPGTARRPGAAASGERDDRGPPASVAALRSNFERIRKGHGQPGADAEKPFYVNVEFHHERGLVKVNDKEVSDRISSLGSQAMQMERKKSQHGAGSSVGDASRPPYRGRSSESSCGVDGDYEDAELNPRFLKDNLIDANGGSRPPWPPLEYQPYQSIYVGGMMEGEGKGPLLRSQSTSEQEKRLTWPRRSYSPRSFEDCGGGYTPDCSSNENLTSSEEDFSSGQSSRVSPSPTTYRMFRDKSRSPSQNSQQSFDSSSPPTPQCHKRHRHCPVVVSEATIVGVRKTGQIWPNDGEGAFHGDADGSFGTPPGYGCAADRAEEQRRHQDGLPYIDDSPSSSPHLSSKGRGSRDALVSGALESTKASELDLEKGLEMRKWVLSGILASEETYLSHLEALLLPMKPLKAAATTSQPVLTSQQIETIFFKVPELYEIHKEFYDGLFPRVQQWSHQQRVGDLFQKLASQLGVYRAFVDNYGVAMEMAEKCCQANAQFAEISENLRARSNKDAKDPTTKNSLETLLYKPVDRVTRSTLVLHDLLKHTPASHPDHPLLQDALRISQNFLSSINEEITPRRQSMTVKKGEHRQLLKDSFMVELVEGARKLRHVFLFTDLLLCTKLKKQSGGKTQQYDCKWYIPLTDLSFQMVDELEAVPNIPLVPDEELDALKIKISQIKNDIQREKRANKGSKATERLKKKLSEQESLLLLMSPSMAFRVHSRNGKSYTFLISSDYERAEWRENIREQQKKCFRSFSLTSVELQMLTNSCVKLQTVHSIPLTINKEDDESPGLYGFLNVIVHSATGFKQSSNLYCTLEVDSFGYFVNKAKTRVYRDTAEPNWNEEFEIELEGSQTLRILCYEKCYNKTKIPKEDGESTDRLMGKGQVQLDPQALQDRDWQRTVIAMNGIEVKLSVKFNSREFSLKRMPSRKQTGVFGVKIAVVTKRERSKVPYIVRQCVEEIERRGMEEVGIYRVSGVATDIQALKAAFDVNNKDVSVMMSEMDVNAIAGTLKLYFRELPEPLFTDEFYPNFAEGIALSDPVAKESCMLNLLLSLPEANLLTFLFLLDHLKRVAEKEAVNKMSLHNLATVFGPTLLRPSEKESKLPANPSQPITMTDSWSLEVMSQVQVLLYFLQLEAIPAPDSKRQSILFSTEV
Give bare numbers, in nM.

The following compounds have reported results that may help.
compound.structure.string	EC50 (nM)
c1ccc(CN2CCC(Nc3ccc4[nH]nc(-c5nc6cc(N7CCC(N8CCCCC8)CC7)ccc6[nH]5)c4c3)CC2)cc1	70
c1coc(CNc2ccc3[nH]nc(-c4nc5cc(N6CCC(N7CCCCC7)CC6)ccc5[nH]4)c3c2)c1	30
c1ccc(COc2ccc3[nH]nc(-c4nc5ccc(N6CCC(N7CCCCC7)CC6)cc5[nH]4)c3c2)cc1	970
O=C(Nc1ccc2[nH]nc(-c3nc4ccc(N5CCC(N6CCCCC6)CC5)cc4[nH]3)c2c1)c1ccco1	560
CC(C)(C)NC(=O)Nc1ccc2[nH]nc(-c3nc4ccc(N5CCC(N6CCCCC6)CC5)cc4[nH]3)c2c1	360
c1csc(CNc2ccc3[nH]nc(-c4nc5cc(N6CCC(N7CCCCC7)CC6)ccc5[nH]4)c3c2)n1	10

**Q:** Look up EC50: c1ccc(CNc2ccc3[nH]nc(-c4nc5ccc(N6CCC(N7CCCCC7)CC6)cc5[nH]4)c3c2)cc1
**A:** 1800

====

Record: IC50 reported on UniProtKB P00519.
Give bare numbers, in nM.

Here is how some compounds turned out for IC50.
compound.structure.string	recorded.measurement
CC(C)(C)NC(=O)Nc1ccc2[nH]nc(-c3nc4ccc(N5CCC(N6CCCCC6)CC5)cc4[nH]3)c2c1	30
c1ccc(CNc2ccc3[nH]nc(-c4nc5ccc(N6CCC(N7CCCCC7)CC6)cc5[nH]4)c3c2)cc1	130
c1csc(CNc2ccc3[nH]nc(-c4nc5cc(N6CCC(N7CCCCC7)CC6)ccc5[nH]4)c3c2)n1	10

Lab note: next compound to report on.
**Q:** Consider the compound c1ccc(COc2ccc3c(-c4nc5ccc(N6CCC(N7CCCCC7)CC6)cc5[nH]4)n[nH]c3c2)cc1 and give its measured IC50.
**A:** 200

====

Quick record of log10(IC50) values for Tyrosine-protein kinase ABL1 (Homo sapiens).
In our notation, the value equals log10 of IC50 in nM.

Some solved cases for reference:
compound.structure.string	property.label	recorded.measurement
COc1ccc(Oc2ccc3[nH]nc(-c4nc5cc(N6CCC(N7CCCCC7)CC6)ccc5[nH]4)c3c2)cc1	log10(IC50)	2.34
COc1ccccc1Oc1ccc2[nH]nc(-c3nc4cc(N5CCC(N6CCCCC6)CC5)ccc4[nH]3)c2c1	log10(IC50)	1.30
c1ccc(COc2cc3[nH]nc(-c4nc5cc(N6CCC(N7CCCCC7)CC6)ccc5[nH]4)c3cc2OCc2ccccc2)cc1	log10(IC50)	2.95
COc1cccc(Oc2ccc3[nH]nc(-c4nc5cc(N6CCC(N7CCCCC7)CC6)ccc5[nH]4)c3c2)c1	log10(IC50)	1.78
O=C(Nc1ccc2[nH]nc(-c3nc4ccc(N5CCC(N6CCCCC6)CC5)cc4[nH]3)c2c1)c1ccco1	log10(IC50)	2.18
c1ccc(Oc2ccc3[nH]nc(-c4nc5ccc(N6CCC(N7CCCCC7)CC6)cc5[nH]4)c3c2)cc1	log10(IC50)	1.48
COc1cc2[nH]nc(-c3nc4ccc(N5CCC(N6CCCCC6)CC5)cc4[nH]3)c2cc1OCc1ccccc1	log10(IC50)	0.48
c1ccc2c(-c3nc4ccc(N5CCC(N6CCCCC6)CC5)cc4[nH]3)n[nH]c2c1	log10(IC50)	2.78

Please find the next compound below.
**Q:** Entry under review: c1coc(CNc2ccc3[nH]nc(-c4nc5cc(N6CCC(N7CCCCC7)CC6)ccc5[nH]4)c3c2)c1 . Reported log10(IC50)?
**A:** 1.78
